- tested_target: Cannabinoid receptor 1 (Mus musculus) (UniProt P47746)
- Sequence (P47746 whole entry): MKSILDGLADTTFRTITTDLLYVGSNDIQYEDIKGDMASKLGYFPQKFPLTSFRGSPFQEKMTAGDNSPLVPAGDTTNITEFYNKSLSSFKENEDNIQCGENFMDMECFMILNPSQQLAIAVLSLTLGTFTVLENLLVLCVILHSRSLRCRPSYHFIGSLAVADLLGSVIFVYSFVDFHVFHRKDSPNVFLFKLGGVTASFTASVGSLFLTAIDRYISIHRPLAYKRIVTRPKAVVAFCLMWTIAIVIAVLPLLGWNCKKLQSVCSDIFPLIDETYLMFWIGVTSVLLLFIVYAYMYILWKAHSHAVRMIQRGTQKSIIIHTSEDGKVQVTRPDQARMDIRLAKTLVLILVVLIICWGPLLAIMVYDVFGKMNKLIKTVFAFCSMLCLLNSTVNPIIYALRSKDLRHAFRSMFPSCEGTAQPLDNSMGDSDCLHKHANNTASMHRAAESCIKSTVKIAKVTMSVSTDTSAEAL
- experiment: Agonist activity at CB1 receptor in CD1 mouse vas deferens assessed as inhibition of electrically-evoked contraction at 0.01 to 1 nM after 15 mins
- Assay type: functional, tissue-based
Active and inactive are the calls of the source. The calls are words filed in the database; no cut-off is given here.
experimental_endpoint: inhibition

Completed entries (count: 8):
compound	data_value
CCCCC/C=C\C/C=C\CCCCCCCCNS(N)(=O)=O	inactive
CCCNS(=O)(=O)NC(C)C12CC3CC(CC(C3)C1)C2 (stereo not drawn)	inactive
NS(=O)(=O)NC1C2CC3CC(C2)CC1C3 (stereo not drawn)	inactive
CC(NS(N)(=O)=O)C12CC3CC(CC(C3)C1)C2 (stereo not drawn)	inactive
CCCCC/C=C\C/C=C\C/C=C\C/C=C\CCCCNS(=O)(=O)NCCC	inactive
CCCNS(=O)(=O)NC12CC3CC(CC(C3)C1)C2	inactive
CCCCC/C=C\C/C=C\C/C=C\C/C=C\CCCCNS(N)(=O)=O	inactive
CCCCCCCC/C=C\CCCCCCCCNS(N)(=O)=O	inactive

Query block: Look at this compound and give its reported inhibition. CCCCCCCCCCCCCCCCCCNS(N)(=O)=O
Result block: inactive

Query block: What would you report for CCCCCCCCCCCCCCCCCCNS(=O)(=O)NCCC ?
Result block: inactive

* * *

Parameter: Activity. Scope: all listed entries.
- tested_target: Fatty-acid amide hydrolase 1 (Rattus norvegicus)
- experiment: Inhibition of FAAH in rat brain homogenates assessed as membrane bound [3H]anandamide level at 1 uM relative to control
- Assay type: tissue-based
- Parameters: scale not given: the % may be the effect or the level left

molecule_smiles	Activity
CCCCCCCC/C=C\CCCCCCCCNS(N)(=O)=O	102%
CCCCCCCCCCCCNS(N)(=O)=O	99.3%
CCCCCCCCCCCCCCCCCCNS(N)(=O)=O	99.4%

Query block: Look at this compound and give its reported Activity. CCCCCCCCCCCCCCCCNS(N)(=O)=O
Result block: 103%

Query block: What would you report for CCCNS(=O)(=O)NC12CC3CC(CC(C3)C1)C2 ?
Result block: 92.6%

Query block: What would you report for CCCCCCCC/C=C\CCCCCCCCNS(=O)(=O)NCCC ?
Result block: 96.5%

Query block: What would you report for CCCCCCCCCCCCCCNS(N)(=O)=O ?
Result block: 109%

Query block: What would you report for CCCCCCCCCCCCCCCCCCNS(=O)(=O)NCCC ?
Result block: 110%

* * *

Parameter: Ki. Scope: all listed entries.
- tested_target: Cannabinoid receptor 1 (Rattus norvegicus, UniProt P20272)
- Sequence (P20272 whole entry): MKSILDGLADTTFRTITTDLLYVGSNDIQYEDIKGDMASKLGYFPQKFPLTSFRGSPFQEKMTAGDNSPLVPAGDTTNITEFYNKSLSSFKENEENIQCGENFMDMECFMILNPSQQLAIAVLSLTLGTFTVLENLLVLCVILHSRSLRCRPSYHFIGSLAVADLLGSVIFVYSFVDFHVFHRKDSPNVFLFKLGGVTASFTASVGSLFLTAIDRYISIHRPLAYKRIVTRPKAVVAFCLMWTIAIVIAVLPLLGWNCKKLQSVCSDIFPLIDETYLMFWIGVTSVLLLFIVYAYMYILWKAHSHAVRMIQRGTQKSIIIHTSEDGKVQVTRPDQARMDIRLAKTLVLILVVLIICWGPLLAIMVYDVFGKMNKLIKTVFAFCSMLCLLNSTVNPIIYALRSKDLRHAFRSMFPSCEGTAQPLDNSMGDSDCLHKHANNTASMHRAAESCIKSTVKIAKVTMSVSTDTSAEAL
- experiment: Displacement of [3H]WIN-55212-2 from CB1 receptor in rat cerebellar membrane after 90 mins by scintillation counting
- Assay type: cell membranes, Cerebellum

Completed entries (count: 2):
compound	Ki
CCCCCCCCCCCCCCCCCCNS(=O)(=O)NCCC	> 10 µM
CCCNS(=O)(=O)NC12CC3CC(CC(C3)C1)C2	4.23 µM

Query block: Look at this compound and give its reported Ki. CCCNS(=O)(=O)NC1C2CC3CC(C2)CC1C3 (centres undefined)
Result block: > 10 µM

Query block: What would you report for CCCNS(=O)(=O)NC(C)C12CC3CC(CC(C3)C1)C2 (centres undefined) ?
Result block: > 100 µM

* * *

- tested_target: Cannabinoid receptor 1 (Rattus norvegicus, UniProt P20272)
- experiment: Displacement of [3H]SR141716A from CB1 receptor in rat cerebellar membrane after 90 mins by scintillation counting
- Type: cell membranes, Cerebellum
experimental_endpoint: pKi
# log scale: pKi equals minus log10 of the concentration in mol/L

Query block: Look at this molecule and give its reported pKi. CCCCC/C=C\C/C=C\C/C=C\C/C=C\CCCCNS(N)(=O)=O
Result block: 5.40

Query block: What would you report for CCCCC/C=C\C/C=C\CCCCCCCCNS(N)(=O)=O ?
Result block: 5.19

Query block: What would you report for CCCNS(=O)(=O)NC12CC3CC(CC(C3)C1)C2 ?
Result block: 5.07

Query block: What would you report for CCCCC/C=C\C/C=C\C/C=C\C/C=C\CCCCNS(=O)(=O)NCCC ?
Result block: 5.63

Query block: What would you report for CCCCCCCCCCCCCCCCCCNS(=O)(=O)NCCC ?
Result block: 5.04

Query block: What would you report for CCCNS(=O)(=O)NC1C2CC3CC(C2)CC1C3 (stereo unspecified) ?
Result block: 5.18

Query block: What would you report for CCCCCCCC/C=C\CCCCCCCCNS(N)(=O)=O ?
Result block: 5.72

Query block: What would you report for CCCCC/C=C\C/C=C\CCCCCCCCNS(=O)(=O)NCCC ?
Result block: 5.14

* * *

- tested_target: Fatty-acid amide hydrolase 1 (Rattus norvegicus) (UniProt P97612)
- Sequence (whole entry): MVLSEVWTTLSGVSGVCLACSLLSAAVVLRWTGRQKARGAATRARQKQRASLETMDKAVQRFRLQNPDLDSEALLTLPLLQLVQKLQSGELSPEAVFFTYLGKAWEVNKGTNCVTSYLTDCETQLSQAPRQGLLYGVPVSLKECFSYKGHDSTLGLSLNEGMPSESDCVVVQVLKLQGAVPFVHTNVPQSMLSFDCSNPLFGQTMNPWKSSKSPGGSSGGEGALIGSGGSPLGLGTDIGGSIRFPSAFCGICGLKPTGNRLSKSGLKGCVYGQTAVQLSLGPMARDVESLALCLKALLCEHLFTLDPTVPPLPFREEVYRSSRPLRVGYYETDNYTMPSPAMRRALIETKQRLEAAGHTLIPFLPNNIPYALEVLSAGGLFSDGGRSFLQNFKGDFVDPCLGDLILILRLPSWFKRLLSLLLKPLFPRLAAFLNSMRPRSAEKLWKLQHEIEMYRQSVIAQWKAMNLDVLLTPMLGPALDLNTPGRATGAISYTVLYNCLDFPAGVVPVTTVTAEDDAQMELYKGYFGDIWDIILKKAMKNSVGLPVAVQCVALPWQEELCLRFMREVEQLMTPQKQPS
- experiment: Inhibition of FAAH in rat brain homogenates assessed as membrane bound [3H]anandamide level at 0.1 uM relative to control
- Type: tissue-based
- Design: scale not given: the % may be the effect or the level left
experimental_endpoint: Activity
Form entry: enter the amount, then its unit.

Completed entries (count: 4):
molecule_smiles	Activity
CCCCCCCCCCCCCCCCCCNS(=O)(=O)NCCC	109%
CCCCCCCC/C=C\CCCCCCCCNS(=O)(=O)NCCC	101%
CCCNS(=O)(=O)NC12CC3CC(CC(C3)C1)C2	90.4%
CCCCCCCCCCCCNS(N)(=O)=O	108%

Query block: Look at this compound and give its reported Activity. CCCCCCCCCCCCCCNS(N)(=O)=O
Result block: 109%

Query block: What would you report for CCCCCCCCCCCCCCCCNS(N)(=O)=O ?
Result block: 114%

Query block: What would you report for CCCCCCCCCCCCCCCCCCNS(N)(=O)=O ?
Result block: 106%

Query block: What would you report for CCCCCCCC/C=C\CCCCCCCCNS(N)(=O)=O ?
Result block: 100%

* * *

- tested_target: UniProtKB P47746
- experiment: Agonist activity at CB1 receptor in CD1 mouse vas deferens assessed as inhibition of electrically-evoked contraction at 0.01 to 1 nM after 15 mins
- Assay type: functional, tissue-based
The source made the active and inactive calls. No cut-off for these calls is given here.
experimental_endpoint: inhibition

molecule	data_value
CCCNS(=O)(=O)NC1C2CC3CC(C2)CC1C3 (stereo not drawn)	inactive
CCCCC/C=C\C/C=C\CCCCCCCCNS(=O)(=O)NCCC	inactive
CCCCCCCC/C=C\CCCCCCCCNS(=O)(=O)NCCC	inactive

* * *

- tested_target: Cannabinoid receptor 1 (Rattus norvegicus)
- experiment: Displacement of [3H]SR141716A from CB1 receptor in rat cerebellar membrane after 90 mins by scintillation counting
- Format: cell membranes, Cerebellum
experimental_endpoint: Ki

Completed entries (count: 2):
compound	tested_target	Ki
CCCNS(=O)(=O)NC(C)C12CC3CC(CC(C3)C1)C2 (stereo not drawn)	Cannabinoid receptor 1 (Rattus norvegicus)	> 10 µM
CCCCCCCCCCCCCCCCCCNS(N)(=O)=O	Cannabinoid receptor 1 (Rattus norvegicus)	> 10 µM

Now examine the next entry.
Query block: Look at this compound and give its reported Ki. CCCCCCCC/C=C\CCCCCCCCNS(=O)(=O)NCCC
Result block: > 10 µM

Cited source for all entries: ChEMBL document CHEMBL1155235
